Target or test system: SMARCA2 (Homo sapiens)
Sequence (P51531 whole entry): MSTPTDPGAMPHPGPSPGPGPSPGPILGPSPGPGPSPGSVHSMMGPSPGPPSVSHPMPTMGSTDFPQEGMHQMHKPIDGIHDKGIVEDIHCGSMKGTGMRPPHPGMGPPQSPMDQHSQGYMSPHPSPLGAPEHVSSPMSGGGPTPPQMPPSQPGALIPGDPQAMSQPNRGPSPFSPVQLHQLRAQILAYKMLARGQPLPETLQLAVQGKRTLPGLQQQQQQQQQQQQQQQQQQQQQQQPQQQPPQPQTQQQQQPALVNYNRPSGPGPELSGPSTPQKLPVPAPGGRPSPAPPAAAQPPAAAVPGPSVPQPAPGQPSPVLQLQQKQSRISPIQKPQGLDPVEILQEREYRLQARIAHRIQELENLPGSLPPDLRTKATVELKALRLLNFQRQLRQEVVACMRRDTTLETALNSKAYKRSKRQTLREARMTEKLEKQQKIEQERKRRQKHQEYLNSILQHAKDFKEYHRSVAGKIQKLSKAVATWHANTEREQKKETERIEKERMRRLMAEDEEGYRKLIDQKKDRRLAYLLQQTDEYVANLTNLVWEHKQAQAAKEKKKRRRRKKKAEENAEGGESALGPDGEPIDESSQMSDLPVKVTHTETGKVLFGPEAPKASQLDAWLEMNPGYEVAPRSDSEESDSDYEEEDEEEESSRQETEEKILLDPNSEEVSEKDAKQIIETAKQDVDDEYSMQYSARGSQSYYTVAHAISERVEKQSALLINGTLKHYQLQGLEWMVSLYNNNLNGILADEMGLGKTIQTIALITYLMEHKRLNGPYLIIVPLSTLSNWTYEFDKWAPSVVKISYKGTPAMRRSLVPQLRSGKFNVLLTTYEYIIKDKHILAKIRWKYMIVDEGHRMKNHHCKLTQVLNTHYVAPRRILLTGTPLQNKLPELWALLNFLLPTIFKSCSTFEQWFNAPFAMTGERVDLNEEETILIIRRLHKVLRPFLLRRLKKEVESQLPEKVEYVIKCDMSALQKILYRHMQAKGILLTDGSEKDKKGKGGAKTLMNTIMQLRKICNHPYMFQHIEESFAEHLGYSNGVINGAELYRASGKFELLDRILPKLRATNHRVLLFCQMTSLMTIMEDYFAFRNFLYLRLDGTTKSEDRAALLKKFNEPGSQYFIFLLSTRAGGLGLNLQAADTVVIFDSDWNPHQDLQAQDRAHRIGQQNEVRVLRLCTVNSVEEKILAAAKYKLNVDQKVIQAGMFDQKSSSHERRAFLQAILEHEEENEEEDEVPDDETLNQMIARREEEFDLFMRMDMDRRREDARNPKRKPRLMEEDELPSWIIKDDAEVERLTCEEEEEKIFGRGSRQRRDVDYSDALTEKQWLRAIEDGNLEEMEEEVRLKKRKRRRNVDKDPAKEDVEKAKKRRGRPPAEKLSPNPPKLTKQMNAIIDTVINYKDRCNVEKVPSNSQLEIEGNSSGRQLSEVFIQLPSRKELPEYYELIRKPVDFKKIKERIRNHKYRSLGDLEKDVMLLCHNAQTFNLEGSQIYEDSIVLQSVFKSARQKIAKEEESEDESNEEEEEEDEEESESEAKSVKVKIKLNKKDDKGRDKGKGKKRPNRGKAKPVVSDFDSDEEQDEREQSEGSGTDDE
Assay notes: SMARCA2 degradation in HeLa cells (Western blot)
Format: cell-based
Parameters: endogenous in cells
Protocol conditions: 80 nM, 4 hours
Readout kind: Degradation rate of SMARCA2 in HeLa cells (%)

Known results for compounds:
{"Compound": "Cn1c(=O)n(C2CCC(=O)NC2=O)c2ccc3c(c21)OCC31CCN(C2CN(c3cc(-c4ccccc4O)nnc3N)C2)CC1 (stereo not drawn)", "Observed measurement": 33}
{"Compound": "Nc1nnc(-c2ccccc2O)cc1C#CC1CCC2(CC1)CC(N1CCN3c4ccc(C(=O)N[C@H]5CCC(=O)NC5=O)cc4OCC[C@H]3C1)C2 (stereo partly drawn)", "Observed measurement": 96}
{"Compound": "Nc1nnc(-c2ccccc2O)cc1C#CC1CCC2(CC1)CC(N1CCN3c4ccc(C(=O)N[C@H]5CCC(=O)NC5=O)cc4OC[C@@H]3C1)C2 (stereo partly drawn)", "Observed measurement": 86}

[1] Nc1nnc(-c2ccccc2O)cc1C#CC1CCC2(CC1)CC(N1CCC3(CCc4cc(C(=O)N[C@H]5CCC(=O)NC5=O)c(F)cc4O3)CC1)C2 (stereo partly drawn)
[2] Nc1nnc(-c2ccccc2O)cc1C#CC1CCC2(CC1)CC(N1CCC3(CC1)CCC1(CC3)COc3c1ccc1c3CN(C3CCC(=O)NC3=O)C1=O)C2 (stereo not drawn)
[3] Nc1nnc(-c2ccccc2O)cc1C#CC1CCC2(CC1)CC(N1CC3(CCc4cc(F)c(C(=O)N[C@H]5CCC(=O)NC5=O)cc4O3)C1)C2 (stereo partly drawn)
Rank entries according to their Degradation rate of SMARCA2 in HeLa cells (%), from the largest number down. Please, when replying, give the labels in the order that was requested.
2, 1, 3
(2: 98%, 1: 68%, 3: 15%)
